- Test system: HCT-116
- experiment.notes: Cytotoxicity against human HCT-116 cells assessed as reduction in cell viability measured after 48 hrs by MTS assay
- Format: functional, cell-based
Activity calls are given as the source filed them. The rule behind the calls is not given here.
quantity.kind: Activity

- C=C1CC[C@H]2[C@](C)(COC(=O)[C@@H](CC(=O)O)[C@@H](OC[C@H]3C(=C)CC[C@H]4[C@](C)(CO)CCC[C@]34C)C(=O)OC)CCC[C@]2(C)[C@H]1CO[C@@H](C(=O)OC)[C@H](CC(=O)O)C(=O)OC: inactive
- C=C1CC[C@H]2[C@@]3(C)CCC[C@]2(C)[C@H]1CO[C@@H](C(=O)OC)[C@H](CC(=O)O)C(=O)OC[C@]1(C)CCC[C@]2(C)[C@@H](CO[C@@H](C(=O)OC)[C@H](CC(=O)OC)C(=O)OC3)C(=C)CC[C@@H]12: inactive
